target: T1, Soluble heterodimeric CD3 protein (hCD3-epsilon/hCD3-delta) with a human Fc tag (hFcΔAdp/hFc) or a mouse Fc … (human, UniProt P07766 23-126; P04234 22-105); experiment: SPR Biacore, 25 C, antibody-capture format
T1 construct: also called hCD3ε/δ; not shown: Fc tag: human (hFcΔAdp/hFc); which tag was used in Ta
T1 sequence (P07766 23-126 limits assumed, stated change not applied, chain 1 of 2): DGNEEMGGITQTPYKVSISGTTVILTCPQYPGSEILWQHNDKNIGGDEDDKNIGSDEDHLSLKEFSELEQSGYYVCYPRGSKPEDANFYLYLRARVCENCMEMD
T1 sequence (P04234 22-105 limits assumed, stated change not applied, chain 2 of 2): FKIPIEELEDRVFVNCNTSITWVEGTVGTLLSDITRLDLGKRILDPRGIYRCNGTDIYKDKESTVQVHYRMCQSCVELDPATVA
Readout type: kon (M⁻¹ s⁻¹)
Only the number, expressed in M⁻¹ s⁻¹, is required.

// known answers, use as guide
| Binder | Readout type | Number |
| --- | --- | --- |
| H2M2774N (antibody, V domains shown, Hybridoma antibody, human variable regions, mouse IgG2 Fc) VH: QVQLVESGGGVVQPGRSLRLSCVASGFTFRSYGMHWVRQAPGKGLQWVAMIYYDGKNKYYADSVRGRFTISRDNSKNTLYLQMNSLRAEDTAMYFCARGPGYNWLDPWGQGTLVTVSS VL: EIVMTQSPATLSVSPGERATLSCRASQRISSNLAWYQQKPGQAPRLLIYGASTRATGSPARFSGSGSGTEFTLTISSLQSEDVAVYYCQQHNNWPLTFGGGTKVEIK | kon | 77900 |
| H2M2711N (antibody, V domains shown, Hybridoma antibody, human variable regions, mouse IgG2 Fc) VH: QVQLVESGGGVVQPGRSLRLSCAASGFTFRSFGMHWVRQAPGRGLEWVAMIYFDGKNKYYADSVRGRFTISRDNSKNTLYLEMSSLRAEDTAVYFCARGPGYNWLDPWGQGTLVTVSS VL: EIVMTQSPATLSVSPGERATLSCRASQSVSRNLAWYQQKPGQAPRLLIYGASTRATGVPARFSGSGSGTEFTLTISSLQSEDFAVFHCQQYNNRPLTFGGGTEVEIK | kon | 67200 |

Query string: For the binder shown here, H2M3543N (antibody, V domains shown, Hybridoma antibody, human variable regions, mouse IgG2 Fc) VH: EVQLVESGGGLVQPGRSLRLSCAASGFTFDDYTMHWVRQAPGKGLEWVSDISWNSGSIGYADSVKGRFTVSRDNAKNSLYLQMNSLRGEDTALYYCAKDMSGYAHYGYYGMDVWGQGTTVTVSS VL: DIQMTQSPSSLSASVGDRVTITCRASQSIRNYLNWYQQKPGKVPKLLIYAASSLQSGVPSRFSGSGSGTDFTLTISSLQPEDFATYYCQQSYSNPPITFGQGTRLEIK , give the reported kon.
Result string: 7530
